- Target: BTK (Homo sapiens)
- Protocol summary: biochemical
- Condition details: read-out: BTK inhibition (%), 0.75 uM BTK, […] probe 3l, 15 min preincubation
Kindly supply the reported inhibition at 10 µM values for the records listed here.
Just the number in %, nothing appended.

API: value(readout=inhibition at 10 µM, system=BTK (Homo sapiens)) for record CC(C)(O)[C@H]1CC[C@@](C)([C@H]2[C@@H](O)C[C@@]3(C)[C@@H]4C[C@H](O)[C@H]5C(C)(C)[C@@H](O)CC[C@@]56C[C@@]46CC[C@]23C)O1
-14.8

API: value(readout=inhibition at 10 µM, system=BTK (Homo sapiens)) for record CC[C@H]1OC(=O)[C@@](C)(F)C(=O)[C@H](C)[C@@H](O[C@@H]2O[C@H](C)C[C@H](N(C)C)[C@H]2O)[C@](C)(OC)C[C@@H](C)C(=O)[C@H](C)[C@H]2N(CCCCn3cc(-c4cccc(N)c4)nn3)C(=O)O[C@]12C
-22.1

API: value(readout=inhibition at 10 µM, system=BTK (Homo sapiens)) for record Cc1c[nH]c2nc(Nc3ccc(N4CCN(C)CC4)c(F)c3)nc(-c3cccc(CC#N)c3)c12
92.4

====

- Target: BTK (Homo sapiens, UniProt Q06187)
- Sequence (Q06187 402-655 limits assumed): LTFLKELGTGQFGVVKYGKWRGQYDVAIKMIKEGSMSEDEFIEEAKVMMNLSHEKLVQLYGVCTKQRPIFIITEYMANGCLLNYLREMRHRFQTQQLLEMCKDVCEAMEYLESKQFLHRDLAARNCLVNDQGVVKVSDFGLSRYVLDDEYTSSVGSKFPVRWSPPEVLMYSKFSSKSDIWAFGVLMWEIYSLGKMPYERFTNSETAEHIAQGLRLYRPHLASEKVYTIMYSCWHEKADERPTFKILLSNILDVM
- Protocol summary: biochemical
- Condition details: read-out: BTK inhibition (%), 0.75 uM BTK, […] probe 3l, 15 min preincubation
Metric name: inhibition at 10 µM (%)
Just the number in %, nothing appended.

Fill blank: measured inhibition at 10 µM of the compound COCC(=O)Nc1cc(Sc2ccccc2)ccc1N=C(NC(=O)OC)NC(=O)OC is ____.
11.6

Fill blank: measured inhibition at 10 µM of the compound Cc1c(C)c(NCC(=O)N(C)C2CCN(Cc3ccc(C(N)=O)cc3)CC2)c(C)c(C)c1N is ____.
12.4

Fill blank: measured inhibition at 10 µM of the compound Cc1c[nH]c(/C=C2\C(=O)Nc3ccccc32)c1CCC(=O)O is ____.
83.4

Fill blank: measured inhibition at 10 µM of the compound OC[C@H]1O[C@@H](c2ccc(Cl)c(Cc3ccc(O[C@H]4CCOC4)cc3)c2)[C@H](O)[C@@H](O)[C@@H]1O is ____.
12.4

Fill blank: measured inhibition at 10 µM of the compound CCCCCCCCCCCCCCCC(=O)OCC is ____.
-12.4

Fill blank: measured inhibition at 10 µM of the compound O=C(O)c1ccccc1O is ____.
-16.3

Fill blank: measured inhibition at 10 µM of the compound Oc1ccc(CC2NCCc3cc(O)c(O)cc32)cc1 (stereo not shown) is ____.
-5.4

Fill blank: measured inhibition at 10 µM of the compound COc1cc2nccc(Oc3ccc(NC(=O)c4cn(C(C)C)c(=O)n(-c5ccc(F)cc5)c4=O)cc3F)c2cc1OC is ____.
12.4

Fill blank: measured inhibition at 10 µM of the compound Cc1cc(NS(=O)(=O)c2ccc(N)cc2)nc(C)n1 is ____.
11

Fill blank: measured inhibition at 10 µM of the compound CCC[S+]([O-])c1ccc2nc(NC(=O)OC)[nH]c2c1 (stereo not shown) is ____.
20.2

Fill blank: measured inhibition at 10 µM of the compound O=c1[nH]c2ccccc2n1CCN1CCN(c2cccc(C(F)(F)F)c2)CC1 is ____.
-34.2

Fill blank: measured inhibition at 10 µM of the compound CC1(C)CC[C@]2(C(=O)O)CCC3=C([C@@H](CCl)C[C@@H]4[C@@]5(C)C[C@H](O)[C@H](O)[C@@](C)(C(=O)O)[C@@H]5CC[C@@]34C)[C@@H]2C1 is ____.
-4.6

Fill blank: measured inhibition at 10 µM of the compound CO/N=C(\C(=O)N[C@@H]1C(=O)N2C(C(=O)OCOC(=O)C(C)(C)C)=C(/C=C\c3scnc3C)CS[C@H]12)c1csc(N)n1 is ____.
28

Fill blank: measured inhibition at 10 µM of the compound CCOc1nc2cccc(C(=O)OC(C)OC(=O)OC3CCCCC3)c2n1Cc1ccc(-c2ccccc2-c2nn[nH]n2)cc1 (stereo not shown) is ____.
53.7

Fill blank: measured inhibition at 10 µM of the compound C[C@@H](O[C@H]1OCCN(Cc2n[nH]c(=O)[nH]2)[C@H]1c1ccc(F)cc1)c1cc(C(F)(F)F)cc(C(F)(F)F)c1 is ____.
-8.3

Fill blank: measured inhibition at 10 µM of the compound COc1cc(O)cc2c1C(=O)C[C@@H](c1ccccc1)O2 is ____.
-12.5
